Test system: BAG3−/− iPS-CM
Test: iPS-CM contractility dose response (automated video microscopy), BAG3−/− cells
Format: cell-based
Details: Homo sapiens, contractility index after 48 hours of exposure, read-out: EC50 Contractility (cardio-toxicity)
METRIC_NAME: pEC50
Units for pEC50: none; it is -log10 of a concentration expressed in mol/L.

Entry COc1cccc2c1C(=O)c1c(O)c3c(c(O)c1C2=O)C[C@@](O)(C(=O)CO)C[C@@H]3O[C@H]1C[C@H](N)[C@H](O)[C@H](C)O1 needs its pEC50 filled in; supply it. 6.12

Entry CC(C)C[C@H](NC(=O)[C@H](Cc1ccccc1)NC(=O)c1cnccn1)B(O)O needs its pEC50 filled in; supply it. 6.46

Entry CC(C)C[C@H](NC(=O)[C@H](CCc1ccccc1)NC(=O)CN1CCOCC1)C(=O)N[C@@H](Cc1ccccc1)C(=O)N[C@@H](CC(C)C)C(=O)[C@@]1(C)CO1 needs its pEC50 filled in; supply it. 5.77

Where these numbers come from: patent US11020463B2
